- TARGET: human Nav1.7 (Homo sapiens (Human))
- EXPERIMENT: FRET-based membrane potential assay, recombinant human sodium channel Nav1.7
- SETUP CONDITIONS: HEK293 cells stably expressing recombinant human Nav1.7; depolarization with veratridine (EC80) + scorpion venom
- From the text: FRET-Based Membrane Potential Assays. Recombinant, Human Sodium Channel, Nav1.7. […]
pIC50: −log10 of the molar value.
MEASURED ATTRIBUTE: pIC50

> print(dat)
                                    molecule  value.measured
 1  O=C1N(CC(=O)N2C[C@@H](O)C[C@@H]2c2cc(F)ccc2F)CCN1c1cccc2c1cnn2-c1ccccc1F            5.64
 2  O=C1N(c2cccc3c2cnn3-c2ccccc2F)CCN1C1CCC(O)C1 (stereo not shown)            5.47
 3  CCCS(=O)(=O)N1CC(N2CCN(c3cccc4c3cnn4-c3ccccc3F)C2=O)C1            5.56
 4  Cc1nc(CN2CCCN(c3cccc4c3cnn4-c3ccccc3F)C2=O)oc1C            5.70
 5  O=C1N(c2cnccn2)CCN1c1cccc2c1cnn2-c1ccccc1F            5.47
 6  O=C(CN1CCN(c2cccc3c2cnn3-c2ccccc2F)C1=O)NC1CCCC(F)(F)C1 (stereo not shown)            5.58
 7  CC(C)[C@H]1CCCN1C(=O)CN1CCN(c2cccc3c2cnn3-c2ccccc2F)C1=O            6.46
 8  O=C1N(Cc2nnc(C3CC3)o2)CCN1c1cccc2c1cnn2-c1ccccc1F            5.63
 9  O=C(OC1CCCCC1)N1CCN(c2cccc3c2cnn3-c2ccccc2F)C1=O            6.54
10  O=C(CN1CCN(c2cccc3c2cnn3-c2ccccc2F)C1=O)NC1CCCCC1            5.85
11  O=C(CN1CCN(c2cccc3c2cnn3-c2ccccc2F)C1=O)c1ccccc1            6.06
12  O=C(CN1CCN(c2cccc3c2cnn3-c2ccccc2F)C1=O)N1CC(C(F)(F)F)C1            5.57
13  CC(C)CC(O)CN1CCCN(c2cccc3c2cnn3-c2ccccc2F)C1=O (stereo not shown)            5.85
14  CC(C)(C)NC(=O)CN1CCN(c2cccc3c2cnn3-c2ccccc2F)C1=O            5.25
15  CC(C)OCC(=O)N1CCN(c2cccc3c2cnn3-c2ccccc2F)C1=O            5.79
16  CC(C)c1cnc(CN2CCN(c3cccc4c3cnn4-c3ccccc3F)C2=O)o1            6.18
17  CC(C)(O)CN1CCN(c2cccc3c2cnn3-c2ccccc2F)C1=O            5.02
18  O=C(CN1CCN(c2cccc3c2cnn3-c2cccc(OC(F)(F)F)c2)C1=O)N1CC[C@H](F)C1            6.45
19  O=C1N(c2cccc3c2cnn3-c2ccccc2F)CCN1C1CN(S(=O)(=O)CC2CC2(Cl)Cl)C1 (stereo not shown)            5.60
20  CC(C)CC(O)CN1CCN(c2cccc3c2cnn3-c2ccccc2F)C1=O (stereo not shown)            6.46
21  CC1CN(C(=O)CN2CCN(c3cccc4c3cnn4-c3ccccc3F)C2=O)CC(C)O1 (stereo not shown)            4.91
22  Cc1nc(CN2CCN(c3cccc4c3cnn4-c3ccccc3F)C2=O)cs1            5.97
23  O=C1N(Cc2ncco2)CCN1c1cccc2c1cnn2-c1ccc(C(F)(F)F)cc1            5.95
24  Cc1cnc(CN2CCN(c3cccc4c3cnn4-c3ccccc3F)C2=O)o1            5.80
25    COCCN1CCN(c2cccc3c2cnn3-c2ccccc2F)C1=O            5.72
26  O=C(/C=C/N1CCN(c2cccc3c2cnn3-c2ccccc2F)C1=O)N1CC[C@H](F)C1            5.54
27  NS(=O)(=O)CN1CCN(c2cccc3c2cnn3-c2ccccc2F)C1=O            5.64
28  O=C(CN1CCN(c2cccc3c2cnn3-c2ccccn2)C1=O)N1CCCC1            5.24
29  Cc1cnc(CN2CCN(c3cccc4c3cnn4-c3ccccc3F)C2=O)nc1            5.28
30  O=C(CN1CCN(c2cccc3c2cnn3C2CCCCC2)C1=O)N1CC[C@H](F)C1            5.14
31  O=C1N(CCc2cccnc2)CCN1c1cccc2c1cnn2-c1ccccc1F            5.74
32  CC(C)OC1CN(C(=O)CN2CCN(c3cccc4c3cnn4-c3ccccc3F)C2=O)C1            5.61
33  O=C1N(Cc2cocn2)CCN1c1cccc2c1cnn2-c1ccc(C(F)(F)F)cc1            5.48
34  O=C(CN1CCN(c2cccc3c2cnn3-c2ccccc2F)C1=O)N1CCCC2(CC1)OCCO2            5.55

====

- TARGET: human Nav1.7 (Homo sapiens (Human), UniProt Q15858)
- Sequence (Q15858 whole entry): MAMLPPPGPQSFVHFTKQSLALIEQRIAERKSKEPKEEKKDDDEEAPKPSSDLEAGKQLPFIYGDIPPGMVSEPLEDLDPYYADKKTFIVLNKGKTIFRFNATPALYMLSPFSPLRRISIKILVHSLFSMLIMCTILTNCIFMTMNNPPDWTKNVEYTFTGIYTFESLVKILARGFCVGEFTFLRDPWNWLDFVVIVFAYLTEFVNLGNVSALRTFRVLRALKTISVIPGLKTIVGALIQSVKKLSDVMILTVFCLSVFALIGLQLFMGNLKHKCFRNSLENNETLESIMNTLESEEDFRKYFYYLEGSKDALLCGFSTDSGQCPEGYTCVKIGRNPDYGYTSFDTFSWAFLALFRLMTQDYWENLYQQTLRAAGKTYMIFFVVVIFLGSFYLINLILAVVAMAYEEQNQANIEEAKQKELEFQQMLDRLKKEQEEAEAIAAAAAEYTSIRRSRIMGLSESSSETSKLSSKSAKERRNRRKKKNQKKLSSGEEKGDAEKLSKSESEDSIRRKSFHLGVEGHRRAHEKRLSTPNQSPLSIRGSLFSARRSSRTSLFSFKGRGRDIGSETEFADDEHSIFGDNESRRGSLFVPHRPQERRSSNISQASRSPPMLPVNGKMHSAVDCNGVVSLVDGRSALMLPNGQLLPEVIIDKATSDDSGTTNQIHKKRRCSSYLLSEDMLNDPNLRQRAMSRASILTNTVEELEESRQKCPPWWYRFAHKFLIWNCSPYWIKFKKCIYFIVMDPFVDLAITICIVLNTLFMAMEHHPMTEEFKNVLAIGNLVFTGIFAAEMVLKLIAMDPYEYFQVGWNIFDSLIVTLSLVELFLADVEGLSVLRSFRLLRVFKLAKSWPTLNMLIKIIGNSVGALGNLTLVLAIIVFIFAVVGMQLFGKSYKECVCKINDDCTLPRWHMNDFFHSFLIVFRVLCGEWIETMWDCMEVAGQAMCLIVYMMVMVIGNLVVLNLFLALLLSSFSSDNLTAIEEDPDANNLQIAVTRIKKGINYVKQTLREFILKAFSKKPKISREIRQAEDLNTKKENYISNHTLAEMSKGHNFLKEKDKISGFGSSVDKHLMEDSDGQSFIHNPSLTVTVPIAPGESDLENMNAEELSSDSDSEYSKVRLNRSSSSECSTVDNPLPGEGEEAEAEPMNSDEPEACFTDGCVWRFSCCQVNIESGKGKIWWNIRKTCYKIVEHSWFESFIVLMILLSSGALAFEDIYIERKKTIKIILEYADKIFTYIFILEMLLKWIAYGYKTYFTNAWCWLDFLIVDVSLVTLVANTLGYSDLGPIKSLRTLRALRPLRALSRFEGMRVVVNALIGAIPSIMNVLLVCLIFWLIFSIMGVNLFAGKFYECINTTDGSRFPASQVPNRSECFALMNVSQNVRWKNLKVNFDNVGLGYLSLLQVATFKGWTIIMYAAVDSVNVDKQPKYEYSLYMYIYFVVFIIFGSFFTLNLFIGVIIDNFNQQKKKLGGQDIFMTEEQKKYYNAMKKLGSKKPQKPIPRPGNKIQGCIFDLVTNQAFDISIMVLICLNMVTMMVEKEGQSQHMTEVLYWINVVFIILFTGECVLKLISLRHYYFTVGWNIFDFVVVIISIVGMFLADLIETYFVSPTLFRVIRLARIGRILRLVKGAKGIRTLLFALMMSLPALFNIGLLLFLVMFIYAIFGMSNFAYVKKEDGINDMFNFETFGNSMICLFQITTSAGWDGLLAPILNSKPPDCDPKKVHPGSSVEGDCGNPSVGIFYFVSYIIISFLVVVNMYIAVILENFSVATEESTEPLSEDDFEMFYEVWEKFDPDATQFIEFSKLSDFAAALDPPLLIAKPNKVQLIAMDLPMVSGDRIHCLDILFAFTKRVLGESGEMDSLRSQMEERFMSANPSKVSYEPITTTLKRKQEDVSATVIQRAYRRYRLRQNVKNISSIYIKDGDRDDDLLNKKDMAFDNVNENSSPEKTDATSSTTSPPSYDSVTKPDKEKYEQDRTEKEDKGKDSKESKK
- EXPERIMENT: FRET-based membrane potential assay, recombinant human sodium channel Nav1.7
- SETUP CONDITIONS: HEK293 cells stably expressing recombinant human Nav1.7; depolarization with veratridine (EC80) + scorpion venom
MEASURED ATTRIBUTE: IC50 (nM)

> print(dat)
                                   compound  value.measured
1  CO[C@H](CC(C)C)CN1CCN(c2cccc3c2cnn3-c2ccccc2F)C1=O [Example 214]            2020
2  O=C(CN1CCN(c2cccc3c2cnn3-c2ccccc2F)C1=O)NC1CCCC1(F)F (stereo not drawn) [Example 347]            3450
3  O=C(CN1CCN(c2cccc3c2cnn3-c2ccccc2F)C1=O)NCc1cccc(F)c1 [Example 173]             800

====

- TARGET: human Nav1.7 (Homo sapiens (Human))
- EXPERIMENT: FRET-based membrane potential assay, recombinant human sodium channel Nav1.7
- Format: cell-based
- SETUP CONDITIONS: HEK293 cells stably expressing recombinant human Nav1.7; depolarization with veratridine (EC80) + scorpion venom
API: label(entry) gives Y if the entry's IC50 is strictly smaller than 2000 nM; on equality or larger values it gives N.

> print(dat)
                                    compound                               target  category.label
 1  O=C(Cn1ccn(-c2cccc3c2cnn3-c2ccccc2F)c1=O)N1CC[C@H](F)C1  human Nav1.7 (Homo sapiens (Human))               Y
 2  C[C@@H]1CN(c2cccc3c2cnn3-c2ccccc2F)C(=O)N1  human Nav1.7 (Homo sapiens (Human))               N
 3  O=C(CN1CCN(c2cccc3c2cnn3-c2ccccc2F)C1=O)N[C@@H]1CCOC1  human Nav1.7 (Homo sapiens (Human))               N
 4  COCc1nc(CN2CCN(c3cccc4c3cnn4-c3ccccc3F)C2=O)cs1  human Nav1.7 (Homo sapiens (Human))               Y
 5  CC(C)(C)OC(=O)N1CC(N2CCN(c3cccc4c3cnn4-c3ccccc3F)C2=O)C1  human Nav1.7 (Homo sapiens (Human))               Y
 6  Cc1cnc(CN2CCN(c3cccc4c3cnn4-c3ccccc3F)C2=O)cn1  human Nav1.7 (Homo sapiens (Human))               N
 7  NC(=O)C(=O)N1CC(N2CCN(c3cccc4c3cnn4-c3ccccc3F)C2=O)C1  human Nav1.7 (Homo sapiens (Human))               N
 8  O=C1N(CC(O)CC2CCC2)CCN1c1cccc2c1cnn2-c1ccccc1F (centres unmarked)  human Nav1.7 (Homo sapiens (Human))               Y
 9  O=C(/C=C\N1CCN(c2cccc3c2cnn3-c2ccccc2F)C1=O)N1CC[C@H](F)C1  human Nav1.7 (Homo sapiens (Human))               N
10  O=C1CCN(C(=O)CN2CCN(c3cccc4c3cnn4-c3ccccc3F)C2=O)C1  human Nav1.7 (Homo sapiens (Human))               N
11  O=C(CN1CCN(c2cccc3c2cnn3-c2ccccc2F)C1=O)NC1CCC(F)(F)CC1  human Nav1.7 (Homo sapiens (Human))               Y
12  O=C(CN1CCN(c2cccc3c2cnn3-c2ccccc2F)C1=O)N1CCOCC1  human Nav1.7 (Homo sapiens (Human))               N
13  Cc1cnc(CN2CCN(c3cccc4c3cnn4-c3ccccc3F)C2=O)s1  human Nav1.7 (Homo sapiens (Human))               Y
14  Cc1nnc(CN2CCCN(c3cccc4c3cnn4-c3ccccc3F)C2=O)o1  human Nav1.7 (Homo sapiens (Human))               N
15  CC(C)CC1CCCN1C(=O)CN1CCN(c2cccc3c2cnn3-c2ccccc2F)C1=O (centres unmarked)  human Nav1.7 (Homo sapiens (Human))               Y
16  CC(C)(C)C(O)CN1CCN(c2cccc3c2cnn3-c2ccccc2F)C1=O (centres unmarked)  human Nav1.7 (Homo sapiens (Human))               N
17  O=C1N(CC(=O)N2CC3CCC2C3)CCN1c1cccc2c1cnn2-c1ccccc1F (centres unmarked)  human Nav1.7 (Homo sapiens (Human))               Y

Taken from patent US9783527B2.
